Tested on: SK-OV-3 ovarian
Test: NCI-60 one-dose screen, 48 h
Details: 10 µM
About 83,000 compounds went through this panel and 20% of them were active in at least one assay; those are over-represented in the sample as a whole. The source made the active and inactive calls. The calls were made as follows: active = growth percent below 10; inactive = the rest.
Outcome codes: Yes for active, No for inactive

• COc1cc2cc(C(=O)N3C[C@@H](CCl)c4c3cc(OC(=O)N3CCN(C(=O)CCC(=O)N5CCN(C)CC5)[C@@H]5CSSC[C@@H]53)c3ccccc43)[nH]c2c(OC)c1OC = Yes
• C=CC[Se]C(=O)c1ccc(C(=O)[Se]CC=C)s1 = Yes
• CCC[Se]C(=O)c1ccc(C(=O)[Se]CCC)s1 = Yes
• CC12OOC(C)(OO1)C2CCC(=O)OCCNc1ccnc2cc(Cl)ccc12 (stereo not drawn) = No
• O=C(NCCCCC(c1ccc(F)cc1)c1ccc(F)cc1)Nc1ccc([N+](=O)[O-])c(C(F)(F)F)c1 = Yes
• C#CC[Se]C(=O)c1ccc(C(=O)[Se]CC#C)s1 = No
• C[C@H]1[C@@H](CC(=O)N[C@@H](Cc2coc3ccccc23)B(O)O)O[C@@H]2OC3(C)CC[C@H]4[C@H](C)CC[C@@H]1[C@@]24OO3 = Yes
• CC(=C\C(=O)Oc1ccc2c3c1OC1C(O)CCC4(O)C(C2)N(CC2CCC2)CCC314)/C=C1\CCCc2ccccc21 (stereo not drawn) = No

----------
Test system: CAKI-1 renal
Assay: NCI-60 one-dose screen, 48 h
Conditions: 10 µM
Compounds without any hit were thinned out: in the full panel of roughly 83,000, 20% have a hit. Calls of active or inactive are those of the source. How the source made its calls: active means growth percent below 10; inactive means the rest.
Outcome codes: active, inactive

* CC[C@]12C=CCN3CC[C@@]4(c5ccc(OC)cc5N(C)[C@H]4[C@@](O)(C(=O)OC)[C@@H]1OC(=O)CCCC[P+](c1ccc(C)cc1)(c1ccc(C)cc1)c1ccc(C)cc1)[C@@H]32 | active
* CC1=C2C(=C[C@@](C)(COP(=O)(Oc3ccccc3)Oc3ccccc3)[C@@H]2O)C(=O)[C@@](C)(O)C12CC2 | active
* CCOP(=O)(OCC)C(NC(C)=O)C(=O)SCCN (stereo not given) | inactive
* C[C@H]1[C@H](OC(=O)CCC(=O)N(CCCc2cn(-c3ccc(CN4CCOCC4)cc3)nn2)CCNc2ccnc3cc(Cl)ccc23)O[C@@H]2OC3(C)CC[C@H]4[C@H](C)CC[C@@H]1[C@@]24OO3 | inactive
* Cc1c2oc3c(C)ccc(C(=O)N[C@@H]4C(=O)N[C@H](C(C)C)C(=O)N5CCC[C@H]5C(=O)N(C)CC(=O)N(C)[C@@H](C(C)C)C(=O)OC4C)c3nc-2c(C(=O)N[C@@H]2C(=O)N[C@H](C(C)C)C(=O)N3CC(=O)C[C@H]3C(=O)N(C)CC(=O)N(C)[C@@H](C(C)C)C(=O)OC2C)c(N)c1=O (stereo not given in full) | active
* O=C(/C=C/c1ccco1)c1nc2ccccc2n1Cc1ccc(F)cc1 | inactive
* O=C(/C=C/c1ccc(Cl)cc1)c1nc2ccccc2n1Cc1ccc(Br)cc1 | inactive
* CC(=O)Oc1ccccc1C(=O)[Se]C(=NC(C)C)NC(C)C | active
* CC1=C(CCC=NNC(N)=O)C2=C(C)C3(CC3)[C@@](C)(O)C(=O)C2=C1 | active
* O=C(/C=C/c1ccccc1)c1nc2ccccc2n1Cc1ccc(F)cc1 | inactive
* Cc1ccc2[nH]c(=S)n(-c3ccc(F)cc3)c(=O)c2c1 | inactive
* COC(=O)c1ccc(-n2cc(CCCN(CCNc3ccnc4cc(Cl)ccc34)C(=O)CCC(=O)O[C@@H]3O[C@@H]4OC5(C)CC[C@H]6[C@H](C)CC[C@@H]([C@H]3C)[C@@]46OO5)nn2)cc1 | inactive
* CC[C@]12C=CCN3CC[C@@]4(c5ccc(OC)cc5N(C)[C@H]4[C@@](O)(C(=O)OC)[C@@H]1OC(=O)CCCC[P+](c1ccc(OC)cc1)(c1ccc(OC)cc1)c1ccc(OC)cc1)[C@@H]32 | active
* O=C(/C=C/c1ccc(F)cc1)c1nc2ccccc2n1Cc1ccc(Br)cc1 | active
* O=C(/C=C/c1ccco1)c1nc2ccccc2n1Cc1ccc(Br)cc1 | inactive

----------
Tested on: HS 578T breast
Assay: NCI-60 one-dose screen, 48 h
Conditions: 10 µM
Method: Growth inhibition of the HS 578T human tumor cell line is measured as a screen for anti-cancer activity. Cells are grown in 96 well plates and exposed to the test compound for 48 hours. Compounds are tested at a single concentration, which is 10^-5 M for most compounds. The reported endpoint is percent growth (GI% or GIPRCNT), where numbers from 0 - 100% represent growth inhibition, and numbers from -100% - 0 represent cell death. For example, a value of 40 represents 60% growth inhibition. […]
This is part of a sample that, as a whole, favours compounds with a hit. Of some 83,000 tested, about 20% had one in any assay. The source made the active and inactive calls. How the source made its calls: active means growth percent below 10; inactive means the rest.
Labels: active, inactive

• C=CC[Se]C(=O)c1ccc(C(=O)[Se]CC=C)s1 = active
• CCOC(=O)C1=C(Nc2ccccc2)C(=O)OC12C(=O)Nc1ccccc12 (centres undefined) = inactive
• CC[C@@]12CC(C(=O)OC)=C3Nc4cc5c(cc4[C@@]34CCN(C[C@H]3O[C@H]31)[C@@H]24)[C@@H]1[C@H](O5)[C@@H](O)[C@@]2(CC)CC(C(=O)OC)=C3Nc4cc(OC)ccc4[C@@]34CCN1[C@@H]24 = active
• O=C(NC([Se])=NC1CCCCC1)c1ccc2c(c1)OCO2 = inactive

----------
Tested on: MDA-MB-231 breast
Assay: NCI-60 one-dose screen, 48 h (100 = growth as untreated, 0 = no growth, -100 = all killed)
Settings: 10 µM
Experimental: Cells are grown in 96 well plates and exposed to the test compound for 48 hours. Compounds are tested at a single concentration, which is 10^-5 M for most compounds. The reported endpoint is percent growth (GI% or GIPRCNT), where numbers from 0 - 100% represent growth inhibition, and numbers from -100% - 0 represent cell death. For example, a value of 40 represents 60% growth inhibition. A value of 0 means no net growth occurred over the course of the experiment. […]
About 83,000 compounds went through this panel and 20% of them were active in at least one assay; those are over-represented in the sample as a whole.
In this section we review reported growth values for a set of compounds.
parameter measured: growth (%)

* C[C@H]1[C@H](OC(=O)CCC(=O)N(CCCc2cn(-c3ccc([N+](=O)[O-])cc3)nn2)CCNc2ccnc3cc(Cl)ccc23)O[C@@H]2OC3(C)CC[C@H]4[C@H](C)CC[C@@H]1[C@@]24OO3 | 50.2
* CC(=C\C(=O)Oc1ccc2c3c1OC1C(O)CCC4(O)C(C2)N(CC2CCC2)CCC314)/C=C1\CCCc2ccccc21 (stereo unspecified) | 75.3
* COc1cc2cc(C(=O)N3C[C@@H](CCl)c4c3cc(OC(=O)N3CCN(C)[C@@H]5CSSC[C@@H]53)c3ccccc43)[nH]c2c(OC)c1OC | -43.2
* CC[C@]12C=CCN3CC[C@@]4(c5ccc(OC)cc5N(C)[C@H]4[C@@](O)(C(=O)OC)[C@@H]1OC(=O)CCC[P+](c1ccc(C)cc1)(c1ccc(C)cc1)c1ccc(C)cc1)[C@@H]32 | -94.9
* C=CCN=C([Se])NC(=O)c1ccc2c(c1)OCO2 | 103
* CC12OOC(C)(OO1)C2CCC(=O)OCCNc1ccnc2cc(Cl)ccc12 (stereo unspecified) | 91.5
* CCOP(=O)(OCC)C(NC(C)=O)C(=O)SCCN (stereo unspecified) | 99.2
* COC(=O)C[C@](O)(CCCC(C)C)C(=O)O[C@H]1C(OC)=C[C@@]23CCCN2CCc2cc4c(cc2[C@@H]13)OCO4 | 7.43
* COC(=O)c1ccc(-n2cc(CCCN(CCNc3ccnc4cc(Cl)ccc34)C(=O)CCC(=O)O[C@@H]3O[C@@H]4OC5(C)CC[C@H]6[C@H](C)CC[C@@H]([C@H]3C)[C@@]46OO5)nn2)cc1 | 62.8
* C=CC[Se]C(=O)c1ccc(C(=O)[Se]CC=C)s1 | -36.4
* Cc1ccc2[nH]c(=S)n(-c3ccc(F)cc3)c(=O)c2c1 | 93.1
* CCOP(=O)(CC(F)(F)C(F)(F)F)OCC | 51.1
* C[C@H]1[C@@H](CC(=O)N[C@@H](Cc2coc3ccccc23)B(O)O)O[C@@H]2OC3(C)CC[C@H]4[C@H](C)CC[C@@H]1[C@@]24OO3 | -92
* COc1ccc2cc([C@H](C)C(=O)[Se]CCC#N)ccc2c1 | -59.9
* COP(=O)(CC(F)(F)C(F)(F)F)OC | 65.1
* CC1=C(CCC=O)C2=C(C)C3(CC3)[C@@](C)(O)C(=O)C2=C1 | -99.2
